Biological target: T1, recombinant human CTLA4-his protein (Acro biosystems, Cat#CT4-H5229) (human, UniProt P16410 37-162)
T1 construct: bought recombinant protein; not shown: his tag
T1 sequence (looked up): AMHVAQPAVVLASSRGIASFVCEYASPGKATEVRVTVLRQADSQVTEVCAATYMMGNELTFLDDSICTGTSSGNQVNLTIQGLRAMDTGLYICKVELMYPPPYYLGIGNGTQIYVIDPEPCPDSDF
Assay: BLI, Octet; antibody from cell supernatant on AHC sensor, CTLA4-his as analyte
Method: Briefly, AHC biosensors (anti-human IgG Fc capture, from ForteBio) were presoaked with 10 mM glycine (pH 1.5) for 3 seconds, and then dipped in a well with running buffer (0.5% w/v BSA in PBST) for 3 seconds, the soaking and dipping steps were repeated for three times. […] A new baseline was run for 180 seconds in another well with running buffer. […]
# kon listing for each entry below
Write the value in M⁻¹ s⁻¹ as a bare number.

Please review the following examples before continuing.
# binder, unit text, kon
measured = [
    ("huC1D1-V3 (antibody, human IgG4 S228P, kappa, V domains shown, humanized IgG4/kappa; tested as 293F cell supernatant on Octet; also called hu CTLA4 C1D1-V3) VH: EVQLVESGGGLVQPGRSLRLSCTASGFTFSDNWMNWVRQAPGKGLEWVGQIRNKPYNYETYYSDSVKGRFTISRDDSKSIVYLQMNSLKTEDTAVYYCTGGMDYWGQGTTVTVSS VL: DIQMTQSPSSLSASVGDRVTITCGASEIIYGALNWYQQKPGKSPKLLIYGATNLADGMPSRFSGSGSGRDYTLTISSLQPEDVATYYCQKILSPPPWTFGGGTKVEIKR", "M⁻¹ s⁻¹", 224000),
    ("huD1D5-V3 (antibody, human IgG4 S228P, kappa, V domains shown, humanized IgG4/kappa; tested as 293F cell supernatant on Octet; also called hu CTLA4 D1D5-V3) VH: EVQLVESGGGLVKPGGSLRLSCAASGFTFSDYGMAWVRQAPGKGLEWVAFISNLAYSVYYADTETGRFTISRDDAKNSLYLQMNSLRAEDTAVYYCARSGLPYAMDYWGQGTTVTVSS VL: DIQMTQSPSSLSASVGDRVTITCRASQDISNYLNWYQQKPGKTVKLLIYYISRLHSGVPSRFSGSGSGTDFTLTISSLQPEDVATYFCQQGRMLPWTFGGGTKVEIKR", "M⁻¹ s⁻¹", 115000),
]

The recorded kon for entry huC1D1-V6 (antibody, human IgG4 S228P, kappa, V domains shown, humanized IgG4/kappa; tested as 293F cell supernatant on Octet; also called hu CTLA4 C1D1-V6) VH: EVQLVESGGGLVQPGRSLRLSCTASGFTFSDNWMNWVRQAPGKGLEWVAQIRNKPYNYETYYSDSVKGRFTISRDDSKSIAYLQMNSLKTEDTAVYYCTGGMDYWGQGTTVTVSS VL: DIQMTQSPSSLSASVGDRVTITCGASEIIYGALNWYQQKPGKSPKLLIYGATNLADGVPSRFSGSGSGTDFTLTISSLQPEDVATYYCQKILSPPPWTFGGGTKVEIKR equals 349000
